These entries and their values trace back to PubChem BioAssay (NCATS).

# protocolText: Quantitative High-Throughput drug screen in 47 multiple myeloma cell lines against the NCATS MIPE library collection: OCIMY5_PLB cell viability assay (AID 1918988); note: nearly all actives have a fitted effect of over 65% in size
# appliedConditions: OCI-MY5 myeloma viability, ATP luminescence, 48 h; series mostly up to 45.8 µM
Records with an inconclusive call do not appear. Active and inactive are the calls of the source. Calls come from the whole dose curve; as a rule, active = well fitted cell-killing curve with a large enough effect; inconclusive = small, poorly fitted or top-dose-only effect, or effect the other way; inactive = no such curve, though single readings can be large or run the other way.
Labels: active, inactive

structureSmiles	answerLabel
CCCCCCCCCC(=O)N[C@@H](Cc1c[nH]c2ccccc12)C(=O)N[C@H](CC(N)=O)C(=O)N[C@@H](CC(=O)O)C(=O)N[C@@H]1C(=O)NCC(=O)N[C@@H](CCCN)C(=O)N[C@@H](CC(=O)O)C(=O)N[C@H](C)C(=O)N[C@@H](CC(=O)O)C(=O)NCC(=O)N[C@H](CO)C(=O)N[C@@H]([C@@H](C)CC(=O)O)C(=O)N[C@@H](CC(=O)c2ccccc2N)C(=O)O[C@@H]1C	inactive
Cc1cn2c(-c3cn[nH]c3)cnc2c(Nc2ccc(C(=O)N3CCNCC3)cc2F)n1	active

###

# System: HeLa
# protocolText: Primary qHTS to identify gynecologic anti-cancer compounds using libraries of approved drugs and bioactive compounds (AID 1345084); note: nearly all actives have a fitted effect of over 55% in size
# appliedConditions: Gynecologic cancer cell panel viability, ATPlite luminescence, 48 h; series mostly up to 57.5 µM
Records with an inconclusive call do not appear. Calls of active or inactive are those of the source. Calls follow the shape of the dose curve; as a rule, active = well fitted cell-killing curve with a large enough effect; inconclusive = small, poorly fitted or top-dose-only effect, or effect the other way; inactive = flat fitted curve, though single readings scatter.
Labels: active, inactive

> print(dat)
                                    compound  answerlabel
 1  Nc1cc(C(F)(F)F)c(-c2cc(N3CCOCC3)nc(N3CCOCC3)n2)cn1       active
 2  COc1c(OCCCN2CCOCC2)ccc2c3n(c(=NC(=O)c4cnc(N)nc4)nc12)CCN3       active
 3  COc1ccc(-c2cc3c(C)nc(N)nc3n(C3CCC(OCCO)CC3)c2=O)cn1 (stereo not given)       active
 4                 O=C(O)CCCc1c[nH]c2ccccc12     inactive
 5  Fc1cc(-c2cccc3ncc(-c4cnn(C5CCNCC5)c4)nc23)cc(F)c1CN1CCOCC1     inactive
 6  COC(=O)Nc1nc2ccc(C(=O)c3ccc(F)cc3)cc2[nH]1       active
 7  Nc1ncnc2c1c(-c1cnc3[nH]ccc3c1)nn2C1CCCC1       active
 8  CN1CCN(Cc2ccc(NC(=O)Nc3ccc(Oc4cc(NC(=O)C5CC5)ncn4)cc3)cc2C(F)(F)F)CC1       active
 9  COc1ccc(-n2nc(C(N)=O)c3c2C(=O)N(c2ccc(N4CCCCC4=O)cc2)CC3)cc1     inactive
10       Clc1ccc2ncc(-c3cccc(NC4CNC4)n3)n2c1     inactive
11  C=CC(=O)N1CCC[C@@H](n2nc(-c3ccc(Oc4ccccc4)cc3)c3c(N)ncnc32)C1     inactive
12  COC(=O)Nc1ccc(-c2nc(N3CCOCC3)c3cnn(C4CCN(Cc5cccnc5)CC4)c3n2)cc1       active
13  Cn1c(=O)n(-c2ccc(C(C)(C)C#N)cc2)c2c3cc(-c4cnc5ccccc5c4)ccc3ncc21     inactive
14  Nc1ccccc1NC(=O)c1ccc(CNc2nccc(-c3cccnc3)n2)cc1       active
15  CCCCCN(CCC12CC3CC(CC(C3)C1)C2)C(=O)NCCCc1ccncc1     inactive
16  Cc1cc(Nc2nc(N[C@@H](C)c3ccc(F)cc3)c(C#N)cc2F)n[nH]1       active
17  CCCCOc1c(C(=O)c2c(F)cc(C)cc2F)cnc2n[nH]cc12       active
18  CCCn1c(=O)c2[nH]c(-c3cnn(Cc4cccc(C(F)(F)F)c4)c3)nc2n(CC)c1=O     inactive
19  COc1ccc(C(=O)CC2(O)C(=O)Nc3c(Cl)ccc(Cl)c32)cc1 (stereo not given)       active
20  Cc1c(NC(=O)OC[C@@H]2COCCN2)cn2ncnc(Nc3ccc4c(cnn4Cc4cccc(F)c4)c3)c12     inactive
